These entries and their values trace back to ChEMBL document CHEMBL3885861.

# Lookup of reported Plat keyed by entry
- Species: Rattus norvegicus
- protocolDescription: Open TG-GATES - Regimen: Single
- Format: toxicity, organism-based, Sprague-Dawley
- Parameters: regimen Single, gender Male, age 6 weeks
- condition: in vivo, po, 0 mg/kg, 9 h, tissue Blood, route gavage, dose level Control
Numeric only. Scale: x10_4/uL

Worked examples, 3 molecules total:
1) CC[C@H]1[C@@H]2C[C@H]3[C@@H]4N(C)c5ccccc5[C@]45C[C@@H]([C@@H]2[C@H]5O)N3[C@@H]1O : 114.2
2) CC(C)N(CCC(C(N)=O)(c1ccccc1)c1ccccn1)C(C)C (stereo not given) [DISOPYRAMIDE] : 113.2
3) CC1=C(CC(=O)O)c2cc(F)ccc2/C1=C\c1ccc([S+](C)[O-])cc1 (stereo not given) : 120.2

# Plat of CN(C)C(=N)N=C(N)N = 107.6

Please fill in: Plat reported for CN(C)CCC=C1c2ccccc2COc2ccccc21 [DOXEPIN] = 119.3
